- target: UniProt Q9UM07
- Sequence (Q9UM07 whole entry): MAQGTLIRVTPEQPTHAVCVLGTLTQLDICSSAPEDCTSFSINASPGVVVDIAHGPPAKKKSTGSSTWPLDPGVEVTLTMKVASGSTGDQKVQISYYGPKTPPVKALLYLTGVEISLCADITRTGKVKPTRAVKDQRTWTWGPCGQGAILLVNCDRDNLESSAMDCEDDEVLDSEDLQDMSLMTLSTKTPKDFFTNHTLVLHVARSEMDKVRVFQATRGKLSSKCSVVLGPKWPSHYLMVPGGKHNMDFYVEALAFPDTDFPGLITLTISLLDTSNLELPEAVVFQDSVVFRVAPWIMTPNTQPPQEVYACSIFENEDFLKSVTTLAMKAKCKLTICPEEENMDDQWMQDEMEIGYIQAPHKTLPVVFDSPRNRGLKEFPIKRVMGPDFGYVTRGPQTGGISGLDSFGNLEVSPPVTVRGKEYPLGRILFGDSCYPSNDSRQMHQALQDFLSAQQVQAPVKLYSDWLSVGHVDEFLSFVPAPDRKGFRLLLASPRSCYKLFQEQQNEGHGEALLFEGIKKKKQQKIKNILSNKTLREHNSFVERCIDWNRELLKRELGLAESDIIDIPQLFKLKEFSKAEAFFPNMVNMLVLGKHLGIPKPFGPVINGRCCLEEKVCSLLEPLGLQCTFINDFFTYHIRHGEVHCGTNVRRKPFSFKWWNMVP
- procedure-details: RFMS Human PAD4 Functional Assay 1
- condition-context: RFMS assay 1; 5 nM hPAD4, 250 μM BAEE substrate, 50 μM calcium, 37° C.
pIC50: −log10 of the molar value.
Mark True for reported pIC50 of 7 or greater; mark False for anything smaller.

molecule	category-label
Cc1c(-c2cc3ccc(-c4ccc(C(N)=O)cc4)cc3n2CC2CC2)nn2cc(C(=O)N3C[C@H](N)C[C@@H](F)C3)ccc12	False
COc1nc(C(=O)N2CC3CCC2[C@@H]3N)cn2nc(-c3cc4ccccc4n3CC3CC3)c(C)c12 (some centres unmarked)	False
COc1cc(C(=O)N2C[C@H](N)C[C@@H](F)C2)cn2nc(-c3cc4ccc(-c5cccc(CNC(C)=O)c5)cc4n3CC3CC3)c(C)c12	False
COC(=O)Nc1ccc(-c2ccc3cc(-c4nn5cc(C(=O)N6CC7CCC6[C@@H]7N)ccc5c4C)n(CC4CC4)c3n2)cn1 (some centres unmarked)	True
COc1nc(C(=O)N2C[C@H](N)C[C@@H](F)C2)cn2nc(-c3cc4ccccc4n3CC3CC3)c(C)c12	False
Cc1c(-c2cc3cccc(OCCn4ccnc4)c3n2CC2CC2)nn2cc(C(=O)N3CCC[C@@H](N)C3)ccc12	True
Cc1c(-c2cc3ccc(-c4ccc(C(N)=O)c(F)c4)nc3n2CC2CC2)nn2cc(C(=O)N3C[C@H](N)C[C@@H](F)C3)ccc12	False
COc1cccc(-c2ccc3cc(-c4nn5cc(C(=O)N6C[C@H](N)C[C@@H](F)C6)cc(OC)c5c4C)n(CC4CC4)c3c2)c1	False
COc1cc(C(=O)N2C[C@H](N)C[C@@H](F)C2)cn2nc(-c3cc4ccc(-c5ccc(CNS(C)(=O)=O)cc5)cc4n3CC3CC3)c(C)c12	False
Cc1c(-c2cc3ccc(Cl)nc3n2CC2CC2)nn2cc(C(=O)N3CCC[C@@H](N)C3)cc(Cl)c12	False
Cc1c(-c2cc3ccc(C(C)(O)C(F)F)nc3n2CC2CC2)nn2cc(C(=O)N3CC4CCC3[C@@H]4N)ccc12 (mixture of isomers)	True
